experiment_summary: Quantitative High-Throughput drug screen in 47 multiple myeloma cell lines against the NCATS MIPE library collection: OPM2_DSMZ cell viability assay (AID 1919872); further: potency means the concentration at half of the fitted maximal effect; nearly all actives have a fitted effect of over 30% in size
test_parameters: OPM2 myeloma viability, CellTiter-Glo ATP luminescence, 48 h; series mostly up to 45.8 µM
Results filed as inconclusive are left out. The source made the active and inactive calls. The call rests on the fitted dose curve; in most records, active means well fitted cell-killing curve with a large enough effect; inconclusive means small, poorly fitted or top-dose-only effect, or effect the other way; inactive means no such curve, though single readings can be large or run the other way.
property_measured: Potency

Look over these answered cases.
>  <smiles_code>
Cc1cc([C@@H](C)Nc2ccccc2C(=O)O)c2nc(N3CCOCC3)cc(=O)n2c1

>  <Potency>
42.9 µM (active)

$$$$
>  <smiles_code>
Cc1cc2c(C(C)C)c(O)c(O)c(C=O)c2c(O)c1-c1c(C)cc2c(C(C)C)c(O)c(O)c(C=O)c2c1O

>  <Potency>
18.7 µM (active)

$$$$

What value of Potency has been recorded for this entry: `COc1cc2nccc(Oc3ccc(NC(=O)NC4CC4)c(Cl)c3)c2cc1C(N)=O` 13.2 µM (active)

----------
experiment_summary: qHTS profiling of the MIPE4 collection as inhibitors of Plasmodium falciparum (3D7) proliferation (AID 743344);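 further: scaled between DMSO vehicle wells and 0.29 µM artemisinin as full inhibition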
test_parameters: P. falciparum 3D7 in erythrocytes, SYBR Green DNA fluorescence, 72 h; at 28.5 µM (top of the series) unless noted
# reported parasite growth, % of DMSO control; entries follow

What value of parasite growth, % of DMSO control has been recorded for this entry: `Cc1cc2c(C(C)C)c(O)c(O)c(C=O)c2c(O)c1-c1c(C)cc2c(C(C)C)c(O)c(O)c(C=O)c2c1O` 8.6%

Again, but for `COc1cc(Nc2ncc3c(n2)-c2ccc(Cl)cc2C(c2c(F)cccc2OC)=NC3)ccc1C(=O)O` 24.7%

Again, but for `COc1ccc(CCN2CCN(CCCc3ccccc3)CC2)cc1OC` 28.6%

----------
experiment_summary: qHTS of pediatric cancer cell lines to identify multiple opportunities for drug repurposing: Primary screen for SK-N-MC cells (AID 1347093)
test_parameters: SK-N-MC viability, CellTiter-Glo luminescence, 48 h; series mostly up to 46 µM
Results filed as inconclusive are left out. The source made the active and inactive calls. The call rests on the fitted dose curve; in most records, active means well fitted cell-killing curve with a large enough effect; inconclusive means small, poorly fitted or top-dose-only effect; inactive means no such curve, though single readings can be large or run the other way.
Field 'call' accepts 1 = active, -1 = inactive

Example entries and their recorded answers appear below.
>  <compound>
Nc1cccc(S(=O)(=O)N2CCCN(S(=O)(=O)c3ccc4c(c3)OCCO4)CC2)c1

>  <label>
-1

$$$$
>  <compound>
CS(=O)(=O)c1ccc(C(=O)Nc2ccc(Cl)c(-c3ccccn3)c2)c(Cl)c1

>  <label>
1

$$$$
>  <compound>
CN(C)c1ccc(C2Nc3ccc4ccccc4c3C3=C2C(=O)CC(C)(C)C3)cc1Br (centres undefined)

>  <label>
1

$$$$
>  <compound>
COc1cc2nccc(Oc3ccc(NC(=O)NC4CC4)c(Cl)c3)c2cc1C(N)=O

>  <label>
1

$$$$
>  <compound>
O=C(Nc1ccc(F)c(C(F)(F)F)c1)Nc1nnc(-c2ccncc2)s1

>  <label>
1

$$$$

Could you kindly confirm the outcome this assay logged for `CS(=O)(=O)Oc1ccc2c(NC(N)=O)c(C(=O)c3ccc(Cl)cc3Cl)oc2c1` ? 1

Again, but for COc1cccc2cc(-c3nc(C4CCC(C(=O)O)CC4)n4ncnc(N)c34)[nH]c12 (centres undefined) 1

Again, but for O=C1CCC(N2C(=O)c3ccccc3C2=O)C(=O)N1 (centres undefined) -1

Again, but for `CCn1c(-c2nonc2N)nc2c(C#CC(C)(C)O)ncc(OC[C@H]3CCCNC3)c21` 1

Hey, just so you know, these numbers are from PubChem BioAssay (NCATS).
